Below is a list of entries, each paired with its recorded Kd value.
Molecular target: T1, GPC3 (UniProt P51654 25-559, limits assumed)
T1 construct: also called antigen GPC3; Glypican 3
T1 sequence (P51654 25-559 limits assumed): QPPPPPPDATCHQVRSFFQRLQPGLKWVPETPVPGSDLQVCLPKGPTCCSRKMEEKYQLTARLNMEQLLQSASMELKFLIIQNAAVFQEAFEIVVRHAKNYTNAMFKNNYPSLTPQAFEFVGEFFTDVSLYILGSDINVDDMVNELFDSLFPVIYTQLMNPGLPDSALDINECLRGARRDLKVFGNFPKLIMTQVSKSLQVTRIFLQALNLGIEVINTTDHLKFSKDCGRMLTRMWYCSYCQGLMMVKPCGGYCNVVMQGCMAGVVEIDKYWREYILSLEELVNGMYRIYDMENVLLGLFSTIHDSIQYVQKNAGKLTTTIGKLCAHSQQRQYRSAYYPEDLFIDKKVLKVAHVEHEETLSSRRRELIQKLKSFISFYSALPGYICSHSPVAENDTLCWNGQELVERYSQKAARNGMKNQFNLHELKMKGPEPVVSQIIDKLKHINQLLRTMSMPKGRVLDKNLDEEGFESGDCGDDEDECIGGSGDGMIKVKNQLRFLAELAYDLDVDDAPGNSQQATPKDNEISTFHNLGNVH
Experiment: SPR as in Example 1 (Biacore T200; scFv-Fc captured, GPC3 in flow)
Numbers only here, please. The scale is nM.

Some entries whose results are on file:
| BINDER | Kd (nM) |
| --- | --- |
| VL1.M2-VH2.M10 humanized scFv (scFv, not shown: a dimerising Fc or GST) scFv: DIVMTQTPLSLSVTPGQPASISCRSSQSLVHSNGNTYLHWYLQKPGQSPQLLIYKVSSRFSGVPDRFSGSGSGTDFTLKISRVEAEDVGVYYCSQNTHVPPTFGQGTKVEIKGGGGSGGGGSGGGGSQVQLVQSGAEVKKPGASVKVSCKASGYTFTSYEMHWVRQAPGQGLEWMGALDPSGGDTAYSQKFQGRVTLTADTSTSTVYMELSSLRSEDTAVYYCTRFYSYTYWGQGTLVTVSS | 6.8 |
| VL1.M2-VH2.M11 humanized scFv (scFv, not shown: a dimerising Fc or GST) scFv: DIVMTQTPLSLSVTPGQPASISCRSSQSLVHSNGNTYLHWYLQKPGQSPQLLIYKVSSRFSGVPDRFSGSGSGTDFTLKISRVEAEDVGVYYCSQNTHVPPTFGQGTKVEIKGGGGSGGGGSGGGGSQVQLVQSGAEVKKPGASVKVSCKASGYTFTSYEMHWVRQAPGQGLEWMGALDPKTGSTAYSQKFQGRVTLTADTSTSTVYMELSSLRSEDTAVYYCTRFYSYTYWGQGTLVTVSS | 13 |
| VL1.M2-VH2.M8 humanized scFv (scFv, not shown: a dimerising Fc or GST) scFv: DIVMTQTPLSLSVTPGQPASISCRSSQSLVHSNGNTYLHWYLQKPGQSPQLLIYKVSSRFSGVPDRFSGSGSGTDFTLKISRVEAEDVGVYYCSQNTHVPPTFGQGTKVEIKGGGGSGGGGSGGGGSQVQLVQSGAEVKKPGASVKVSCKASGYTFTSYEMHWVRQAPGQGLEWMGALDPSTGDTAYSQKFQGRVTLTADTSTSTVYMELSSLRSEDTAVYYCTRFYSYTYWGQGTLVTVSS | 6 |

Lookup result for VL1.M6-VH2.M6 humanized scFv (scFv, not shown: a dimerising Fc or GST) scFv: DIVMTQTPLSLSVTPGQPASISCRSSQSLVHSNGNTYLHWYLQKPGQSPQLLIYKVSSRFSGVPDRFSGSGSGTDFTLKISRVEAEDVGVYYCMQNTHVPPTFGQGTKVEIKGGGGSGGGGSGGGGSQVQLVQSGAEVKKPGASVKVSCKASGYTFTSYEMHWVRQAPGQGLEWMGALDPKTGDTAYSQKFQGRVTLTADTSTSTVYMELSSLRSEDTAVYYCTRFYSYTYWGQGTLVTVSS ; measured Kd: 5.7
